Reference source for all entries: patent US4272437A

Observed MIC, system Pr. morganii A-15153.
Experimental endpoint: MIC

>>> readout_value("CC1=C(C(=O)O)N2C(=O)[C@H]([C@H](C)O)[C@H]2S1 (relative stereo)")
"> 125 µg/mL"
>>> readout_value("COC1=C(C(=O)[O-])N2C(=O)C[C@H]2S1.[Na+] [Preparation 17, Sodium 2-Methoxypenem-3-carboxylate]")
"> 63 µg/mL"
>>> readout_value("CSc1nnc(C2=C(C(=O)O)N3C(=O)CC3S2)o1 (stereo not shown)")
"> 125 µg/mL"
>>> readout_value("CC[C@@H](O)[C@H]1C(=O)N2C(C(=O)O)=C(C)S[C@H]12 (relative stereo)")
"> 125 µg/mL"
>>> readout_value("O=C(O)C1=C(CCC[N+](=O)[O-])SC2CC(=O)N12 (stereo not shown)")
"4 µg/mL"
>>> readout_value("O=C([O-])C1=C(COCc2ccccc2)S[C@@H]2CC(=O)N12.[Na+] [Preparation 14 (Na^+ Salt)]")
"16 µg/mL"
>>> readout_value("CC(=O)NCCC1=C(C(=O)O)N2C(=O)CC2S1 (stereo not shown)")
"4 µg/mL"
>>> readout_value("O=C(O)C1=C(C2CCC2)SC2CC(=O)N12 (stereo not shown)")
"16 µg/mL"
>>> readout_value("CC(=O)OCC1=C(C(=O)[O-])N2C(=O)C[C@H]2S1.[Na+]")
"> 125 µg/mL"
>>> readout_value("O=C([O-])C1=C(Cc2ccccc2)S[C@@H]2CC(=O)N12.[Na+] [Preparation 21, Sodium 2-Benzylpenem-3-carboxylate]")
"4 µg/mL"
>>> readout_value("Cc1cc(CC2=C(C(=O)O)N3C(=O)CC3S2)on1 (stereo not shown)")
"125 µg/mL"
>>> readout_value("CC1=C(C(=O)O)N2C(=O)[C@H]([C@@H](C)N)[C@H]2S1 (relative stereo)")
"> 63 µg/mL"
>>> readout_value("NCC1=C(C(=O)O)N2C(=O)CC2S1 (stereo not shown)")
"1 µg/mL"
>>> readout_value("O=C(O)C1=C(Cc2c[nH]c3ccccc23)SC2CC(=O)N12 (stereo not shown)")
"2 µg/mL"
>>> readout_value("O=C(O)C1=C(Cc2cccs2)SC2CC(=O)N12 (stereo not shown)")
"1 µg/mL"
>>> readout_value("COCC1=C(C(=O)[O-])N2C(=O)C[C@H]2S1.[Na+]")
"4 µg/mL"
>>> readout_value("O=C(O)CCC1=C(C(=O)O)N2C(=O)CC2S1 (stereo not shown)")
"63 µg/mL"
>>> readout_value("CCC1C(=O)N2C(C(=O)[O-])=C(C)S[C@H]12.[Na+] (stereo partly drawn) [1 (cis)]")
"> 125 µg/mL"
>>> readout_value("NCCCC1=C(C(=O)O)N2C(=O)CC2S1 (stereo not shown) [Example 22, Sodium 2-Aminopropylpenem-3-carboxylate]")
"32 µg/mL"
